# assay-explanation: chemical genetic growth profiling, strain panel (AID 1159580);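 also: tested at 20 µM; growth read once vehicle control cultures reached saturation at 30 °C; 1 = growth at the plate median or of vehicle wells; lower values mean less growth of the strain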
# recorded-conditions: S. cerevisiae deletion strains, growth OD, locus YDR150W, strain NUM1, active compounds read low
In all, about 5,500 compounds went through this assay and about 2,000 (36%) were called active. Inconclusive results (about 18%) are left out. Some of the results follow.
reported-metric: normalized growth
I only need the number, thanks.

Some solved cases for reference:
C=C[C@@](C)(O)CCC1C(=C)C[C@H](O)C2C(C)(C)CCCC12C (some centres not stated) :: 1.01
NCCC(O)C(=O)NC1CC(N)C(OC2OC(CN)C(O)C(O)C2N)C(OC2OC(CO)C(O)C2O)C1O (configuration not stated) :: 0.999
CC[C@@H]1C=C/C=C/C[C@H](C)[C@@H](O)[C@](C)(O)C(=O)[C@H](C)[C@@H](O)[C@H](C)C(=O)[C@H](C)[C@@H](O)[C@H](C)/C=C/C(=O)O[C@H]2[C@@H](C)[C@@H](CC1)O[C@@]1(CC[C@@H](C)[C@@H](CC(C)O)O1)[C@@H]2C (some centres not stated) :: 1
C/C(=N/O)c1sc2nc(C(F)(F)F)nn2c1C :: 0.975
CC[C@@]1(O)C[C@H](O[C@H]2C[C@H](N(C)C)[C@H](O)[C@H](C)O2)c2c(cc3c(c2O)C(=O)c2c(O)cccc2C3=O)[C@H]1C(=O)OC :: 0.945
NCCS(=O)(=O)O :: 1.01

Now consider the entry below.
Ask: For the molecule `CC[C@@]1(O)C[C@H](O)c2c(cc3c(c2O)C(=O)c2c(O)ccc(O)c2C3=O)[C@H]1C(=O)OC` , give its measured normalized growth value.
Result: 0.879

* * *

# assay-explanation: chemical genetic growth profiling, strain panel (AID 1159580)
# recorded-conditions: S. cerevisiae deletion strains, growth OD, locus YNL307C, strain MCK1, active compounds read low
About 2,000 (36%) of roughly 5,500 compounds were called active. Inconclusive results (about 18%) are left out. This is one part of the list.
// classify: if (normalized growth < 0.9) Fulfilled else Not fulfilled

Some solved cases for reference:
COc1ccc(-c2coc3cc(O)ccc3c2=O)cc1 :: Fulfilled
COC(=O)C[C@H]1C2(C)CC34OC5(C)O[C@@]6([C@H](OC)C(OC(=O)C(C)C)[C@]7(C)C(/C(=C(/OC)C(C)C)C(=O)O[C@H]7c7ccoc7)[C@@]6(O5)[C@H](OC)[C@@]3(OC)C2OC(C)=O)[C@]14C (stereo partly drawn) :: Not fulfilled
O=S(=O)(O)CCS :: Not fulfilled

Ask: Given the entry CN1C2CCC1CC(OC(c1ccccc1)c1ccccc1N)C2 (stereo not drawn) , would its reported normalized growth be below 0.9?
Result: Not fulfilled

Ask: Given the entry `COC(=O)c1cc(=O)c(O)c2c(O)c(O)ccc2c1` , would its reported normalized growth be below 0.9?
Result: Not fulfilled

Ask: Given the entry COc1cc2nc(N(C)CCCNC(=O)C3CCCO3)nc(N)c2cc1OC (stereo not drawn) , would its reported normalized growth be below 0.9?
Result: Not fulfilled

* * *

# assay-explanation: chemical genetic growth profiling, strain panel (AID 1159580)
# recorded-conditions: S. cerevisiae deletion strains, growth OD, locus YLR262C, strain YPT6, active compounds read low
About 2,000 (36%) of roughly 5,500 compounds were called active. Roughly 18% stayed inconclusive and do not appear here. This is one part of the list.
// classify: if (normalized growth < 1) Met else Not met

Some solved cases for reference:
COc1ccc(C(=O)CC(=O)O)c2c1C=CC(C)(C)O2 :: Not met
O=C(O)c1cc2cc(F)ccc2[nH]1 :: Not met
Cn1c(=O)c2c(ncn2CC(O)CO)n(C)c1=O (stereo unspecified) :: Met
CSc1nc(N)n(-c2ccccc2)n1 :: Not met
c1ccc(OCCOc2ccccn2)nc1 :: Not met

Ask: Given the entry O=C1CCC(N2C(=O)c3ccccc3C2=O)C(=O)N1 (stereo unspecified) , would its reported normalized growth be below 1?
Result: Not met

Ask: Given the entry `C[n+]1c2cc(N)ccc2cc2ccc(N)cc21` , would its reported normalized growth be below 1?
Result: Met

Ask: Given the entry `CN(C)C=Nc1ncccc1OCc1ccc(Cl)c(Cl)c1` , would its reported normalized growth be below 1?
Result: Not met

Ask: Given the entry `Cc1cc(=O)n2[nH]cnc2n1` , would its reported normalized growth be below 1?
Result: Met

* * *

Known normalized growth of a selection of compounds
# assay-explanation: chemical genetic growth profiling, strain panel (AID 1159580)
# recorded-conditions: S. cerevisiae deletion strains, growth OD, locus YPR141C, strain kar3, active compounds read low
Screen size: about 5,500 compounds; about 2,000 (36%) were called active. About 18% were inconclusive and are not listed. This is one part of the list.
I only need the number, thanks.

Some solved cases for reference:
C[C@@H]1CC(Cl)CC[C@H]1C(=O)OC(C)(C)C (some centres undefined) :: 0.979
CCN(CC)C(=O)N1CCN(C)CC1 :: 0.981
CCCCNC(=O)NS(=O)(=O)c1ccc(C)cc1 :: 0.979

Now consider the entry below.
Ask: For the compound `CN1CCC(OC(c2ccccc2)c2ccccc2)CC1` , give its measured normalized growth value.
Result: 0.965

* * *

# assay-explanation: chemical genetic growth profiling, strain panel (AID 1159580);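 also: tested at 20 µM; growth read once vehicle control cultures reached saturation at 30 °C; 1 = growth at the plate median or of vehicle wells; lower values mean less growth of the strain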
# recorded-conditions: S. cerevisiae deletion strains, growth OD, locus YHR030C, strain SLT2, active compounds read low
The campaign covered roughly 5,500 compounds. About 2,000 (36%) were called active. Roughly 18% stayed inconclusive and do not appear here. Some of the results follow.
// classify: if (normalized growth < 0.8) met else not met

Ask: Given the entry `N#C/C(=N/Nc1ccccc1)C(=O)c1ccccc1OC(F)(F)F` , would its reported normalized growth be below 0.8?
Result: not met

Ask: Given the entry `CCOC(=O)Cc1csc(N=CNO)n1` , would its reported normalized growth be below 0.8?
Result: not met

Ask: Given the entry `COc1cc2c(cc1OC)C(=O)c1ccc(OC)c(OC)c1OCC(=O)C2` , would its reported normalized growth be below 0.8?
Result: not met

Ask: Given the entry `COc1cccc(C2CCN(C(=O)c3cccc4ccccc34)CC2)c1` , would its reported normalized growth be below 0.8?
Result: not met

Ask: Given the entry `CSc1nc(N)n(-c2ccccc2)n1` , would its reported normalized growth be below 0.8?
Result: not met

Ask: Given the entry `O=C(Nc1cccc(C(F)(F)F)c1)c1cncc(C#Cc2ccccc2)c1` , would its reported normalized growth be below 0.8?
Result: not met

Ask: Given the entry `CCOC(=O)c1ccc2nc(N=CNO)sc2c1` , would its reported normalized growth be below 0.8?
Result: not met

* * *

# assay-explanation: chemical genetic growth profiling, strain panel (AID 1159580);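 also: tested at 20 µM; growth read once vehicle control cultures reached saturation at 30 °C; 1 = growth at the plate median or of vehicle wells; lower values mean less growth of the strain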
# recorded-conditions: S. cerevisiae deletion strains, growth OD, locus YLR113W, strain HOG1
The whole screen tested about 5,500 compounds, of which about 2,000 (36%) were called active. About 18% were inconclusive and are not listed. Rule as the data show it: active = normalized growth mostly below about 0.91 (no sharp cut-off); inconclusive = no clear call, values can overlap the other calls; inactive = mostly above about 0.92. This is one part of the list.
Write down the outcome that applies. Available outcomes: 1 = active, -1 = inactive

N#C/C(=N/Nc1ccccc1)C(=O)c1ccccc1OC(F)(F)F :: 1
COc1cc(CNC(=O)CCCC/C=C/C(C)C)ccc1O :: -1

Ask: Give the logged outcome of this assay for the following compound: CC[C@@H](C(=O)C(C)[C@@H](O)[C@H](C)CCc1ccc(C)c(O)c1C(=O)O)C1OC(CC)(C2CC[C@](O)(CC)[C@H](C)O2)C[C@@H]1C (stereo partly drawn)
Result: -1

Ask: Give the logged outcome of this assay for the following compound: `N#C/C(=N/Nc1ccc(F)cc1)C(=O)c1ccccc1`
Result: 1

Ask: Give the logged outcome of this assay for the following compound: CN1C2CCC1CC(OC(c1ccccc1)c1ccccc1N)C2 (stereo not drawn)
Result: -1

Ask: Give the logged outcome of this assay for the following compound: `Cc1cc(C)cc(Sc2ccc3nnc(-c4ccccc4)n3n2)c1`
Result: -1

* * *

Known normalized growth of a selection of compounds
# assay-explanation: chemical genetic growth profiling, strain panel (AID 1159580);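 also: tested at 20 µM; growth read once vehicle control cultures reached saturation at 30 °C; 1 = growth at the plate median or of vehicle wells; lower values mean less growth of the strain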
# recorded-conditions: S. cerevisiae deletion strains, growth OD, locus YDR001C, strain nth1, active compounds read low
Out of some 5,500 compounds screened, about 2,000 (36%) were called active. Another 18% or so got no clear call; they are omitted. Some of the results follow.
I only need the number, thanks.

CCCc1cc(C(N)=S)ccn1 :: 0.971
CCN1CCCC(OC(=O)C(c2ccccc2)c2ccccc2)C1 (stereo not given) :: 0.975
CCCCNC(=O)NS(=O)(=O)c1ccc(C)cc1 :: 1.02
COc1cc2nc(N(C)CCCNC(=O)C3CCCO3)nc(N)c2cc1OC (stereo not given) :: 0.997
Cc1ccc(S(=O)(=O)NC(=O)NN2CCCCCC2)cc1 :: 0.986
COC(=O)c1cc(=O)c(O)c2c(O)c(O)ccc2c1 :: 0.999
CN(C)CCCC1(c2ccc(F)cc2)OCc2cc(C#N)ccc21 (stereo not given) :: 0.981
COc1ccc(C2CNC(=O)C2)cc1OC1CCCC1 (stereo not given) :: 1.01

Ask: For the compound OCC(O)CN1CCN(c2ccccc2)CC1 (stereo not given) , give its measured normalized growth value.
Result: 0.98

Ask: For the compound `CCOC(=O)n1ccn(C)c1=S` , give its measured normalized growth value.
Result: 0.982

Ask: For the compound `Oc1cc(O)c2c(c1)O[C@H](c1ccc(O)c(O)c1)[C@H](O)C2` , give its measured normalized growth value.
Result: 1

Ask: For the compound C[C@]12CCC(=O)C=C1C=CC1C2CC[C@@]2(C)C1CC[C@@]2(O)CCC(=O)O (stereo not given in full) , give its measured normalized growth value.
Result: 1.01

Ask: For the compound `Oc1cc(O)c2c(c1)O[C@H](c1ccc(O)c(O)c1)[C@@H](O)C2` , give its measured normalized growth value.
Result: 0.994

Attribution: PubChem BioAssay AID1159580
